# experimental-target: hERG (KCNH2) (Homo sapiens)
# Sequence (Q12809 whole entry): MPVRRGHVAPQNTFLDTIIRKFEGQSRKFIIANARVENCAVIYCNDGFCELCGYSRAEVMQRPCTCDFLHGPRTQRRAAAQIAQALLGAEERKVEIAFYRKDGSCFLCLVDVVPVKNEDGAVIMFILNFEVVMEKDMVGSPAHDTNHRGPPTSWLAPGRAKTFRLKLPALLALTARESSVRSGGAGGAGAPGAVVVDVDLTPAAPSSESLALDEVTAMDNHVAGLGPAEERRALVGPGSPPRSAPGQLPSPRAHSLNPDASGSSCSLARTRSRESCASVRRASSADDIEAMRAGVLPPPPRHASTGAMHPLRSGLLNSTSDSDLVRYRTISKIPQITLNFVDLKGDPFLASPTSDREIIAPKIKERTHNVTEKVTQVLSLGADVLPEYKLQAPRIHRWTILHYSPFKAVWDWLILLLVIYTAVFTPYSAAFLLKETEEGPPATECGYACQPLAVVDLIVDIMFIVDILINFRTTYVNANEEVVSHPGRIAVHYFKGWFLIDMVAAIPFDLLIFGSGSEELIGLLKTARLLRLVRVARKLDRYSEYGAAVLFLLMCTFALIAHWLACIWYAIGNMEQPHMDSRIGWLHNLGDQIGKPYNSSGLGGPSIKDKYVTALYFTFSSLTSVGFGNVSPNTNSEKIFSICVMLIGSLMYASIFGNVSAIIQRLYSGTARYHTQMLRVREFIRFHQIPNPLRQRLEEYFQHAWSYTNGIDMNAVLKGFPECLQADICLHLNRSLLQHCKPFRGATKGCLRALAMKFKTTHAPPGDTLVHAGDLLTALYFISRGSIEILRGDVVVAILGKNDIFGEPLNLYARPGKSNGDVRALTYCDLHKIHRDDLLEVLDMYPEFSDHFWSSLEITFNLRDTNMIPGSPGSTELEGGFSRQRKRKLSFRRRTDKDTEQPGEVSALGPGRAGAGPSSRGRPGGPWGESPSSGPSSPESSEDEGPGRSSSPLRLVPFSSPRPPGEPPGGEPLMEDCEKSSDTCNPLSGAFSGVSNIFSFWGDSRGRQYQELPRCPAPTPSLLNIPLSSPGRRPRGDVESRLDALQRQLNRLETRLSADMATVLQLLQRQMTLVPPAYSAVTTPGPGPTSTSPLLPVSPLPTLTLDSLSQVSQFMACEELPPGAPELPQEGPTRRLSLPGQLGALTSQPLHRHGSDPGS
# test-method-notes: Inhibition of human ERG at 30 uM by manual patch-clamp assay relative to control
reported-property: inhibition at 30 µM (%)
Write the number in % without appending the unit.

Task: Could you tell me which inhibition at 30 µM is on file for `CC(C)N(C)[C@@H]1CC[C@H](N2CC[C@H](Nc3ncnc4ccc(C(F)(F)F)cc34)C2=O)[C@H](CS(C)(=O)=O)C1` ?
Output: 16
